Where these numbers come from: ChEMBL document CHEMBL3431459

Recorded measurements of Papp, one per entry
- PROCEDURE SUMMARY: SUPPLEMENTARY: PAMPA permeability assay
- Format: physicochemical
- CONDITION: read-out: Permeability
Give a bare numeral; the unit ×10⁻⁶ cm/s is implied.

COc1ccc(Cl)cc1S(=O)(=O)N1CCOc2ccc(C(=O)Nc3ccc(C(=O)O)cc3)cc21 | 2.7
COc1ccc(Cl)cc1S(=O)(=O)N1CCCCc2ccc(C(=O)Nc3ccc(C(=O)O)c(F)c3)cc21 | 2.15

Kindly review the next molecule as well.
**Query** Answer with the recorded Papp of COc1ccc(Cl)cc1S(=O)(=O)N1CC(C)c2ccc(C(=O)Nc3ccc(C(=O)O)c(Cl)c3)cc21 (stereo not drawn) only.
**Result** 1.77

* * *

Listing of recorded log10 IC50 by entry.
- STUDY SYSTEM: Carnitine O-palmitoyltransferase 1, liver isoform (Homo sapiens)
- Sequence (P50416 whole entry, canonical isoform): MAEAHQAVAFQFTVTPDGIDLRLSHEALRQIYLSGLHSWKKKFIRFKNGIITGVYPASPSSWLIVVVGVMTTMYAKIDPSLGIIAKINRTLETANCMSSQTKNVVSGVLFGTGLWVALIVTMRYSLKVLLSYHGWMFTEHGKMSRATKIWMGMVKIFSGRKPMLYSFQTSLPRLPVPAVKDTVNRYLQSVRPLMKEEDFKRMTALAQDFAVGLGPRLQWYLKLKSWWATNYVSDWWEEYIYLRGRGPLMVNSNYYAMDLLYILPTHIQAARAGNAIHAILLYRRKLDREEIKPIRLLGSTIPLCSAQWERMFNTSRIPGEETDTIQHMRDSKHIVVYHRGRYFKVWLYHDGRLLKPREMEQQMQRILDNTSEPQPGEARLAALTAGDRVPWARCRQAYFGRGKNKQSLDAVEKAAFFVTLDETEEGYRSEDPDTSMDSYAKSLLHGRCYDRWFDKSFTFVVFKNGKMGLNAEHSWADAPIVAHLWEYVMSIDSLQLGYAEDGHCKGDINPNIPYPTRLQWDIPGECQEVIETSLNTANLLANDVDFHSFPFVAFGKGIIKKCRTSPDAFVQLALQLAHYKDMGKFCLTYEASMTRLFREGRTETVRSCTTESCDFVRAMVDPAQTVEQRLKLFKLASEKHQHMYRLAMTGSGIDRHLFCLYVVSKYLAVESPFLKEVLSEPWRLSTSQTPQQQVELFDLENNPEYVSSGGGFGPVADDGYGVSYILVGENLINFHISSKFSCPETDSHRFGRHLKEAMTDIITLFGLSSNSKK
- PROCEDURE SUMMARY: SUPPLEMENTARY: Inhibition of Carnitine palmitoyltransferase 1, liver isoform
# values: log10(IC50), units nM

COc1ccc(Cl)cc1S(=O)(=O)N1COc2c(C)cc(C(=O)Nc3nc(CC(=O)O)cs3)cc21 | 1.90
Cc1ncc(-c2noc([C@H]3CCCCN3C(=O)COc3ccccc3)n2)c(=O)[nH]1 | 2.15
Cc1cc(-c2nc([C@H]3CCCCN3C(=O)COc3ccccc3)no2)on1 | 2.06
COc1ccc(Cl)cc1S(=O)(=O)N1COc2c(C)cc(C(=O)Nc3ccc(CC(=O)O)cc3)cc21 | 2.57
COc1ccc(Cl)cc1S(=O)(=O)N1CC(C(=O)O)Oc2ccc(C(=O)Nc3cccc(F)c3)cc21 (stereo not given) | 1.21
COc1ccc(Cl)cc1S(=O)(=O)c1c2cc(C(=O)Nc3ccc(C(=O)O)cc3)ccc2nn1C | 1.78
COc1ccc(Cl)cc1S(=O)(=O)N1COc2c(F)cc(C(=O)Nc3nc(CC(=O)O)cs3)cc21 | 1.49
O=C([C@H]1CCCCN1C(=O)COc1ccccc1)N1Cc2ccc(C3CCOC3)cc2C1 (stereo not given in full) | 1.80

**Query** Entry COc1ccc(C)cc1S(=O)(=O)N1CCc2ccc(C(=O)Nc3ccc(CC(=O)O)cc3)cc21 needs its log10 IC50 filled in; supply it.
**Result** 2.37

**Query** Respond only with log10 IC50 recorded for CC(=O)NCc1cccc(-c2n[nH]c([C@H]3CCCCN3C(=O)COc3ccccc3)n2)c1
**Result** 2.28

**Query** Specify reported log10 IC50 for the molecule shown: NS(=O)(=O)c1ccc(C#C[C@H]2CCCCN2C(=O)COc2ccccc2)cc1
**Result** 1.94

* * *

- PROCEDURE SUMMARY: SUPPLEMENTARY: Lyophilisation Solubility Assay (LYSA)
- Format: physicochemical
- CONDITION: read-out: Kinetic_solubility
Each entry below carries its recorded solubility kinetic.
Answer with a number only, understood to be in µg/mL.

Take a look at these entries with their results.
O=C(COc1ccccc1)N1CCCC[C@@H]1c1noc(-c2cccc3[nH][nH]c(=O)c23)n1 | 46
COc1ccc(Cl)cc1S(=O)(=O)N1CCOc2c(F)cc(C(=O)Nc3ccc(C(=O)O)c(Cl)c3)cc21 | 380

**Query** Report solubility kinetic for CC(=O)Nc1ccc(-c2noc([C@H]3CCCCN3C(=O)C#Cc3ccccc3)n2)cc1C(F)(F)F
**Result** 1

**Query** Look up solubility kinetic of CCCN(c1cc(C(=O)Nc2ccc(CC(=O)O)cc2)cc2c1OCO2)S(=O)(=O)c1cc(Cl)ccc1OC and report it.
**Result** 517

**Query** Please indicate solubility kinetic recorded for O=C(COc1ccccc1)N1CCOC[C@@H]1c1nc(-c2ccc3[nH]cnc3c2)no1
**Result** 19

**Query** Tell me its solubility kinetic given COc1ccc(Cl)cc1S(=O)(=O)N1CC[S+]([O-])c2ccc(C(=O)Nc3ccc(CC(=O)O)cc3)cc21 (stereo not drawn) as the entry.
**Result** 456

**Query** Input COc1ccc(Cl)cc1CN1C(=O)C(C)(C)c2ccc(C(=O)Nc3ccc(C(=O)O)cc3)cc21 , output reported solubility kinetic.
**Result** 136

**Query** // fetch solubility kinetic given entry COc1ccc(Cl)cc1S(=O)(=O)c1c[nH]c2ccc(C(=O)Nc3nc(CC(=O)O)cs3)cc12
**Result** 66
